meta.source: paper PMC9007951

- METHOD_NOTES: Timed organ biodistribution of [^64Cu]Cu-DOTATATE by ex vivo gamma counting
- Format: in vivo, mice
- STUDY_CONDITIONS: mouse, stomach, intravenous, 1.85 MBq, total radioactivity; female C57BL/6 mice, 5 min after injection, median (IQR), N=3-7; read-out: Tissue radioactivity, stomach
METRIC: tissue uptake at 5 min (%ID/g)
Report as a plain number; the unit %ID/g is understood.

Query: Assign tissue uptake at 5 min to the following record: C[C@@H](O)[C@H](NC(=O)[C@@H]1CSSC[C@H](NC(=O)[C@@H](Cc2ccccc2)NC(=O)CN2CCN(CC(=O)O)CCN(CC(=O)O)CCN(CC(=O)O)CC2)C(=O)N[C@@H](Cc2ccc(O)cc2)C(=O)N[C@H](Cc2c[nH]c3ccccc23)C(=O)N[C@@H](CCCCN)C(=O)N[C@@H]([C@@H](C)O)C(=O)N1)C(=O)O [[^64Cu]Cu-DOTATATE, metal not drawn]
Response: 2.4

###

- METHOD_NOTES: Timed organ biodistribution of [^64Cu]Cu-DOTATATE by ex vivo gamma counting
- Assay type: in vivo, mice
- STUDY_CONDITIONS: mouse, bone marrow, intravenous, 1.85 MBq, total radioactivity; female Apoe^-/- mice 12 weeks on Western Diet, 15 min after injection, median (IQR), N=3-8; read-out: Tissue radioactivity, bone marrow
METRIC: tissue uptake at 0.25 h (%ID/g)
Report as a plain number; the unit %ID/g is understood.

Query: Assign tissue uptake at 0.25 h to the following record: C[C@@H](O)[C@H](NC(=O)[C@@H]1CSSC[C@H](NC(=O)[C@@H](Cc2ccccc2)NC(=O)CN2CCN(CC(=O)O)CCN(CC(=O)O)CCN(CC(=O)O)CC2)C(=O)N[C@@H](Cc2ccc(O)cc2)C(=O)N[C@H](Cc2c[nH]c3ccccc23)C(=O)N[C@@H](CCCCN)C(=O)N[C@@H]([C@@H](C)O)C(=O)N1)C(=O)O [[^64Cu]Cu-DOTATATE, metal not drawn]
Response: 2.6

###

- METHOD_NOTES: Timed organ biodistribution of [^64Cu]Cu-DOTATATE by ex vivo gamma counting
- Assay type: in vivo, mice
- STUDY_CONDITIONS: mouse, spleen, intravenous, 1.85 MBq, total radioactivity; female Apoe^-/- mice 12 weeks on Western Diet, 120 min after injection, median (IQR), N=3-8; read-out: Tissue radioactivity, spleen
METRIC: tissue uptake at 2 h (%ID/g)
Report as a plain number; the unit %ID/g is understood.

Query: Assign tissue uptake at 2 h to the following record: C[C@@H](O)[C@H](NC(=O)[C@@H]1CSSC[C@H](NC(=O)[C@@H](Cc2ccccc2)NC(=O)CN2CCN(CC(=O)O)CCN(CC(=O)O)CCN(CC(=O)O)CC2)C(=O)N[C@@H](Cc2ccc(O)cc2)C(=O)N[C@H](Cc2c[nH]c3ccccc23)C(=O)N[C@@H](CCCCN)C(=O)N[C@@H]([C@@H](C)O)C(=O)N1)C(=O)O [[^64Cu]Cu-DOTATATE, metal not drawn]
Response: 1.2

###

- METHOD_NOTES: Timed organ biodistribution of [^64Cu]Cu-DOTATATE by ex vivo gamma counting
- Assay type: in vivo, mice
- STUDY_CONDITIONS: mouse, thoracic aorta, intravenous, 1.85 MBq, total radioactivity; female C57BL/6 mice, 5 min after injection, median (IQR), N=3-7; read-out: Tissue radioactivity, thoracic aorta
METRIC: tissue uptake at 5 min
Respond with a number, then the unit of measure.

Query: Assign tissue uptake at 5 min to the following record: C[C@@H](O)[C@H](NC(=O)[C@@H]1CSSC[C@H](NC(=O)[C@@H](Cc2ccccc2)NC(=O)CN2CCN(CC(=O)O)CCN(CC(=O)O)CCN(CC(=O)O)CC2)C(=O)N[C@@H](Cc2ccc(O)cc2)C(=O)N[C@H](Cc2c[nH]c3ccccc23)C(=O)N[C@@H](CCCCN)C(=O)N[C@@H]([C@@H](C)O)C(=O)N1)C(=O)O [[^64Cu]Cu-DOTATATE, metal not drawn]
Response: 3.1 %ID/g

###

- METHOD_NOTES: Timed organ biodistribution of [^64Cu]Cu-DOTATATE by ex vivo gamma counting
- Assay type: in vivo, mice
- STUDY_CONDITIONS: mouse, large intestine, intravenous, 1.85 MBq, total radioactivity; female Apoe^-/- mice 12 weeks on Western Diet, 30 min after injection, median (IQR), N=3-8; read-out: Tissue radioactivity, large intestine
METRIC: tissue uptake at 0.5 h (%ID/g)
Report as a plain number; the unit %ID/g is understood.

Query: Assign tissue uptake at 0.5 h to the following record: C[C@@H](O)[C@H](NC(=O)[C@@H]1CSSC[C@H](NC(=O)[C@@H](Cc2ccccc2)NC(=O)CN2CCN(CC(=O)O)CCN(CC(=O)O)CCN(CC(=O)O)CC2)C(=O)N[C@@H](Cc2ccc(O)cc2)C(=O)N[C@H](Cc2c[nH]c3ccccc23)C(=O)N[C@@H](CCCCN)C(=O)N[C@@H]([C@@H](C)O)C(=O)N1)C(=O)O [[^64Cu]Cu-DOTATATE, metal not drawn]
Response: 2.8

###

- METHOD_NOTES: Timed organ biodistribution of [^64Cu]Cu-DOTATATE by ex vivo gamma counting
- Format: in vivo, mice
- STUDY_CONDITIONS: mouse, bone marrow, intravenous, 1.85 MBq, total radioactivity; female C57BL/6 mice, 15 min after injection, median (IQR), N=3-7; read-out: Tissue radioactivity, bone marrow
METRIC: tissue uptake at 0.25 h (%ID/g)
Report as a plain number; the unit %ID/g is understood.

Query: Assign tissue uptake at 0.25 h to the following record: C[C@@H](O)[C@H](NC(=O)[C@@H]1CSSC[C@H](NC(=O)[C@@H](Cc2ccccc2)NC(=O)CN2CCN(CC(=O)O)CCN(CC(=O)O)CCN(CC(=O)O)CC2)C(=O)N[C@@H](Cc2ccc(O)cc2)C(=O)N[C@H](Cc2c[nH]c3ccccc23)C(=O)N[C@@H](CCCCN)C(=O)N[C@@H]([C@@H](C)O)C(=O)N1)C(=O)O [[^64Cu]Cu-DOTATATE, metal not drawn]
Response: 3.5

###

- METHOD_NOTES: Timed organ biodistribution of [^64Cu]Cu-DOTATATE by ex vivo gamma counting
- Format: in vivo, mice
- STUDY_CONDITIONS: mouse, large intestine, intravenous, 1.85 MBq, total radioactivity; female C57BL/6 mice, 30 min after injection, median (IQR), N=3-7; read-out: Tissue radioactivity, large intestine
METRIC: tissue uptake at 0.5 h (%ID/g)
Report as a plain number; the unit %ID/g is understood.

Query: Assign tissue uptake at 0.5 h to the following record: C[C@@H](O)[C@H](NC(=O)[C@@H]1CSSC[C@H](NC(=O)[C@@H](Cc2ccccc2)NC(=O)CN2CCN(CC(=O)O)CCN(CC(=O)O)CCN(CC(=O)O)CC2)C(=O)N[C@@H](Cc2ccc(O)cc2)C(=O)N[C@H](Cc2c[nH]c3ccccc23)C(=O)N[C@@H](CCCCN)C(=O)N[C@@H]([C@@H](C)O)C(=O)N1)C(=O)O [[^64Cu]Cu-DOTATATE, metal not drawn]
Response: 1.7

###

- METHOD_NOTES: Timed organ biodistribution of [^64Cu]Cu-DOTATATE by ex vivo gamma counting
- Type: in vivo, mice
- STUDY_CONDITIONS: mouse, small intestine, intravenous, 1.85 MBq, total radioactivity; female C57BL/6 mice, 5 min after injection, median (IQR), N=3-7; read-out: Tissue radioactivity, small intestine
METRIC: tissue uptake at 5 min (%ID/g)
Report as a plain number; the unit %ID/g is understood.

Query: Assign tissue uptake at 5 min to the following record: C[C@@H](O)[C@H](NC(=O)[C@@H]1CSSC[C@H](NC(=O)[C@@H](Cc2ccccc2)NC(=O)CN2CCN(CC(=O)O)CCN(CC(=O)O)CCN(CC(=O)O)CC2)C(=O)N[C@@H](Cc2ccc(O)cc2)C(=O)N[C@H](Cc2c[nH]c3ccccc23)C(=O)N[C@@H](CCCCN)C(=O)N[C@@H]([C@@H](C)O)C(=O)N1)C(=O)O [[^64Cu]Cu-DOTATATE, metal not drawn]
Response: 2

###

- METHOD_NOTES: Timed organ biodistribution of [^64Cu]Cu-DOTATATE by ex vivo gamma counting
- Format: in vivo, mice
- STUDY_CONDITIONS: mouse, abdominal aorta, intravenous, 1.85 MBq, total radioactivity; female C57BL/6 mice, 120 min after injection, median (IQR), N=3-7; read-out: Tissue radioactivity, abdominal aorta
METRIC: tissue uptake at 2 h (%ID/g)
Report as a plain number; the unit %ID/g is understood.

Query: Assign tissue uptake at 2 h to the following record: C[C@@H](O)[C@H](NC(=O)[C@@H]1CSSC[C@H](NC(=O)[C@@H](Cc2ccccc2)NC(=O)CN2CCN(CC(=O)O)CCN(CC(=O)O)CCN(CC(=O)O)CC2)C(=O)N[C@@H](Cc2ccc(O)cc2)C(=O)N[C@H](Cc2c[nH]c3ccccc23)C(=O)N[C@@H](CCCCN)C(=O)N[C@@H]([C@@H](C)O)C(=O)N1)C(=O)O [[^64Cu]Cu-DOTATATE, metal not drawn]
Response: 0.7
